test system: Bacillus subtilis; test: cleaved RNA product abundance (RNA/gDNA barcode ratio) relative to median wild-type variant (ratio to wild type); higher = more accumulation of the downstream cleavage product; conditions: experiment (reporter, strain, medium): exp 4a: truncated aprE reporter, strain BJT201 with 2% xylose (RNase J1 expressed); cleavage site: cggR-gapA (positions -7 to +36 mutated)
# cleaved RNA product abundance annotations
Answer with the value's number alone.

{"MONOMER_SEQUENCE": "ACAGACGAAGGAGCCGCAAAGAAGTTATTAAGGGATCAATAATCCTTCAATATAAATATCTCTCACTTATTTAAA", "SUBJECT_OF_TEST": "Bacillus subtilis", "cleaved RNA product abundance": 0.353}
{"MONOMER_SEQUENCE": "ACAGACGAAGGAGCCGCAAAGAAGTTCTTAAGGGATGAATAATCCCTCAATTTAAATATCTCTCACTTATTTAAA", "SUBJECT_OF_TEST": "Bacillus subtilis", "cleaved RNA product abundance": 0.0838}
{"MONOMER_SEQUENCE": "ACAGACGAAGGAGCCGCAAAGAAGTTATTAAGGGATGAAAAATCCCTCAATATAAATATCTCTCACTTATTTAAA", "SUBJECT_OF_TEST": "Bacillus subtilis", "cleaved RNA product abundance": 0.781}

Could you now consider this next sequence?
Determine its reported cleaved RNA product abundance: ACAGACGAAGGAGCCGCAAAGAACTGATTAAGGGATGAATAATCCCTCAATATAAATATCTCTCACTTATTTAAA
0.238

* * *

tested on: Bacillus subtilis; experiment: cleaved RNA product abundance (RNA/gDNA barcode ratio) relative to median wild-type variant (ratio to wild type); higher = more accumulation of the downstream cleavage product; details: experiment (reporter, strain, medium): exp 4a: truncated aprE reporter, strain BJT201 with 2% xylose (RNase J1 expressed); cleavage site: cggR-gapA (positions -7 to +36 mutated)
Measured cleaved RNA product abundance accompanies every entry in the list below.
API doc: respond with a numeric literal and nothing else, no unit.

{"MONOMER_SEQUENCE": "ACAGACGAAGGAGCCGCATAGAAGTTATTAAGGGATGAATAATCCCTCAATAGAAATATCTCTCACTTATTTAAA", "QUANTITY_MEASURED": "cleaved RNA product abundance", "MEAS_VALUE": 0.149}
{"MONOMER_SEQUENCE": "ACAGACGAAGGAGCCGCGAAGAAGTTATTAACGGATGAATAATCCCTCAATATAAATATCTCTCACTTATTTAAA", "QUANTITY_MEASURED": "cleaved RNA product abundance", "MEAS_VALUE": 0.185}
{"MONOMER_SEQUENCE": "ACAGACGAAGGAGCCGCAAAGAAGTTATTAAGAGATGAAAAATCCCTCAATATAAATATCTCTCACTTATTTAAA", "QUANTITY_MEASURED": "cleaved RNA product abundance", "MEAS_VALUE": 0.18}

Now for another entry.
Provide one value: measured cleaved RNA product abundance of ACAGACGAAGGAGCCGCAAAGAAGTGATTAAGGTATGAATAATCCCTCAATATAAATATCTCTCACTTATTTAAA
0.113

* * *

system: Bacillus subtilis; experiment: cleaved RNA product abundance (RNA/gDNA barcode ratio) relative to median wild-type variant (ratio to wild type); higher = more accumulation of the downstream cleavage product; settings: experiment (reporter, strain, medium): exp 2b: truncated aprE reporter, strain BJT200; cleavage site: cggR-gapA (positions -7 to +36 mutated)
# cutoff 0.3 applies to cleaved RNA product abundance; >= gives Condition met, < gives Condition not met

{"MONOMER_SEQUENCE": "ACAGACGAAGGAGCCGCAAAGAAGGTATTAAGGGATGAATAATCGCTCAATATAAATATCTCTCACTTATTTAAA", "QUALITATIVE_LABEL": "Condition not met"}
{"MONOMER_SEQUENCE": "ACAGACGAAGGAGCCGCAAAGAAGTAATTAAGGGATGAATAATCCCTCAAAATAAATATCTCTCACTTATTTAAA", "QUALITATIVE_LABEL": "Condition not met"}
{"MONOMER_SEQUENCE": "ACAGACGAAGGAGCCGCAAAGAAGTTATTAATGGATGAATAATCCCTCAAAATAAATATCTCTCACTTATTTAAA", "QUALITATIVE_LABEL": "Condition not met"}
{"MONOMER_SEQUENCE": "ACAGACGAAGGAGCCGCAAAGAACTTATTAAGGGATCAATAATCCCTCAATATAAATATCTCTCACTTATTTAAA", "QUALITATIVE_LABEL": "Condition not met"}
{"MONOMER_SEQUENCE": "ACAGACGAAGGAGCCGCTAAGAAGTTATTAAGGGATGAATAATTCCTCAATATAAATATCTCTCACTTATTTAAA", "QUALITATIVE_LABEL": "Condition met"}
{"MONOMER_SEQUENCE": "ACAGACGAAGGAGCCGCAAAAAAGTTATTAAGGGCTGAATAATCCCTCAATATAAATATCTCTCACTTATTTAAA", "QUALITATIVE_LABEL": "Condition met"}

# evaluate next
Is the recorded value of cleaved RNA product abundance equal to or greater than 0.3 for this sequence? ACAGACGAAGGAGCCGCAAAGAAGTTAATAAGGGATGAATAATCACTCAATATAAATATCTCTCACTTATTTAAA
Condition not met
